test system: CP237; assay: qHTS profiling for inhibitors of Plasmodium falciparum proliferation (AID 504749); note: nearly all actives have a fitted effect of over 60% in size; note: potency is the fitted concentration of half-maximal effect; settings: P. falciparum in erythrocytes, SYBR Green DNA, 72 h; series mostly up to 28.7 µM
Records with an inconclusive call do not appear. Active and inactive are the calls of the source. Calls come from the whole dose curve; as a rule, active = well fitted inhibition curve with a large enough effect; inconclusive = small, poorly fitted or top-dose-only effect; inactive = flat fitted curve, though single readings scatter.
Quantity: Potency

Look over these answered cases.
ClC1=C(Cl)C2(Cl)C3C4CC(C5OC45)C3C1(Cl)C2(Cl)Cl (stereo not drawn) | inactive
CNc1ccc(C(=O)CC(O)CCC(C)C2OC(=O)CC(O)CC(=O)CC(O)CC(O)CC(O)CC(O)CC3(O)CC(O)C(C(=O)OC)C(CC(O[C@@H]4OC(C)C(O)C(N)C4O)/C=C/C=C/C=C/C=C/C=C/C=C/C=C/C2C)O3)cc1 (stereo partly drawn) | inactive
O=C1C=C2C=CC3C[C@@]2(O1)C1CCCCN31 (stereo partly drawn) | 5.01 µM (active)
C=CC1CN2CCC1CC2C(OC(=O)OCC)c1ccnc2ccc(OC)cc12 (stereo not drawn) | 7.08 µM (active)
CC[C@]1(c2cccc(O)c2)CCCCN(C)C1 | 3.16 µM (active)

Fill in Potency for each of the 6 compounds listed.
1. C[C@]12CC[C@H]3[C@@H](CCC4=CC(=O)CC[C@@]43C)[C@@H]1CC[C@@H]2O
2. O=c1ccc2cc(O[C@H]3O[C@@H](CO)[C@@H](O)[C@@H](O)[C@@H]3O)c(O)cc2o1
3. CC[C@@]1(c2ccc(N)cc2)CCC(=O)NC1=O
4. CCCC[N+]1(C)C2CC(OC(=O)C(CO)c3ccccc3)CC1C1OC12 (stereo not drawn)
5. C[C@@H]1O[C@H](O[C@@H]2C=C3CC[C@H]4[C@@H](CC[C@]5(C)[C@@H](c6ccc(=O)oc6)CC[C@]45O)[C@@]3(C)CC2)[C@@H](O)[C@H](O)[C@@H]1O
6. CC(=O)OCC(=O)[C@@H]1CC[C@H]2[C@H]3CC[C@H]4C[C@@H](O)CC[C@]4(C)[C@@H]3C(=O)C[C@@]12C

Key:
1. inactive
2. inactive
3. inactive
4. inactive
5. inactive
6. inactive

Quick request: Potency for each listed item, please.
1. C[C@@]12CCC(=O)C=C1C=C[C@H]1[C@H]3CC[C@](O)(CCC(=O)O)[C@]3(C)CC[C@@H]12
2. CC(=O)O[C@H]1CC[C@@]2(C)C(=CC[C@@H]3[C@H]2CC[C@]2(C)C(=O)CC[C@H]32)C1
3. N[C@H]1C[C@H]1c1ccccc1
4. C[C@H]1CN(C2CCC(C#N)(c3ccc(F)cc3)CC2)CC[C@@]1(C(=O)O)c1ccccc1 (stereo partly drawn)
5. C[C@]12CC[C@H](OS(=O)(=O)O)CC1=CCC1C2CC[C@]2(C)C(=O)CC[C@@H]12 (stereo partly drawn)
6. CO[C@@H](COC(N)=O)C1=C(N2CC2)C(=O)C(C)=C(N2CC2)C1=O

Key:
inactive
inactive
inactive
inactive
inactive
1.26 µM (active)

Exercise: Please tell me: Potency of C[N+]1(C)[C@@H]2CC[C@H]1CC(OC(=O)[C@@H](CO)c1ccccc1)C2 (stereo partly drawn) , system CP237?
Key: inactive

---

Kindly supply the reported activity change, negative = inhibition values for the records listed here.
Test: NFAT Signaling Pathway (AID 444);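 note: carbachol stimulus at about its EC50 of 1 µM final; % is set by controls: 0 for no effect and ±100 for the full control effect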
Settings: Jurkat NFAT-bla M1, carbachol, beta-lactamase ratio, 5 h; at 17.2 µM (top of the series)
Experimental: NCGC Assay Overview: The nuclear factor of activated T cells (NFAT) family of transcription factors has been found primarily in most immune system cells and some other non-immune cells. NFAT plays the immunomodulatory role, primarily in T-cell activation and differentiation. […] NCGC Assay Protocol Summary: The cells were prepared in RPMI 1640 medium containing 0.1% dialyzed FBS and 25 mM HEPES at 1.6 x 10^6cell/ml. […] The %Activity was determined from the ratio of 460nm/530nm. […]
Records with an inconclusive call do not appear. Active and inactive are the calls of the source. Calls come from the whole dose curve; as a rule, active = well fitted curve in either direction with a large enough effect (not every such curve was filed as active); inconclusive = small, poorly fitted or top-dose-only effect, or another doubt; inactive = flat fitted curve, though single readings scatter.

CC(=O)[C@@H]1CC[C@H]2[C@H]3CC[C@H]4C[C@@H](O)CC[C@]4(C)[C@@H]3C(=O)C[C@@]12C | -7.61% (inactive)
COc1ccc(OC)c([C@H](O)[C@H](C)N)c1 | 4.39% (inactive)

Moving on to another compound below.
Exercise: Need activity change, negative = inhibition of `CN1[C@H]2CC(=O)C[C@@H]1[C@@H](O)C2` , thanks.
Key: -9.47% (inactive)

---

system: CP252; experiment: qHTS profiling for inhibitors of Plasmodium falciparum proliferation (AID 504749); note: nearly all actives have a fitted effect of over 60% in size; settings: P. falciparum in erythrocytes, SYBR Green DNA, 72 h; series mostly up to 12.8 µM
Results filed as inconclusive are left out. The source made the active and inactive calls. Calls come from the whole dose curve; as a rule, active = well fitted inhibition curve with a large enough effect; inconclusive = small, poorly fitted or top-dose-only effect; inactive = flat fitted curve, though single readings scatter.
Bench note: report the call from 1 = active, 0 = inactive

Worked examples follow.
ClC1=C(Cl)C2(Cl)C3C4CC(C5OC45)C3C1(Cl)C2(Cl)Cl (centres undefined) | 0
CC(C)c1c(CN(C)[C@@H](C)Cc2ccccc2)n(C)n(-c2ccccc2)c1=O | 0
C[C@@]12CCC(=O)C=C1C=C[C@H]1[C@H]3CC[C@](O)(CCC(=O)O)[C@]3(C)CC[C@@H]12 | 0
CC(=O)O[C@H]1CC[C@@]2(C)C(=CC[C@@H]3[C@H]2CC[C@]2(C)C(=O)CC[C@H]32)C1 | 0
CCCC[N+]1(C)C2CC(OC(=O)C(CO)c3ccccc3)CC1C1OC12 (centres undefined) | 0

Exercise: Could you please tell me the result logged for `CO[C@@H](COC(N)=O)C1=C(N2CC2)C(=O)C(C)=C(N2CC2)C1=O` in this assay?
Key: 1

Exercise: Please let me know the test result on file for CC(=O)OC1C[C@H](O[C@@H]2C(O)C[C@H](O[C@@H]3C(O)C[C@@H](OC4CC[C@]5(C)C(CCC6C5CC(O)[C@@]5(C)C(C7=CC(=O)OC7)CC[C@@]65O)C4)OC3C)OC2C)O[C@H](C)[C@H]1O[C@H]1OC(CO)C(O)C(O)C1O (some centres undefined) .
Key: 0

Exercise: What is the recorded call for this compound in the test? `CC[C@@H]1[C@@H]2C[C@H]3[C@H]4N(C)c5ccccc5[C@@]45C[C@@H]([C@@H]2[C@@H]5O)N3[C@H]1O`
Key: 0

Exercise: Write down the call the test reported for this compound. Item: CC([C@H](O)c1ccccc1)N(C)C (some centres undefined)
Key: 0

Exercise: Entry `NCC[C@H](O)C(=O)N[C@H]1C[C@@H](N)[C@@H](O[C@H]2O[C@@H](CN)[C@@H](O)[C@@H](O)[C@@H]2N)[C@@H](O[C@H]2O[C@@H](CO)[C@@H](O)[C@@H]2O)[C@@H]1O` : call = ?
Key: 0

Exercise: Called result for CNC(C)[C@@H](O)c1ccccc1 (some centres undefined)
Key: 0

Exercise: Recorded test call requested for COc1cc2c(cc1OC)[C@@]13CCN4CC5=CCOC6CC(=O)N2C1[C@H]6[C@@H]5C[C@@H]43 (some centres undefined)
Key: 0

Exercise: Which outcome was assigned to CNC(C)[C@@H](O)c1ccc(O)cc1 (some centres undefined) in this test?
Key: 0

Exercise: Would you mind telling me which call this test gave `C[C@H](N)[C@@H](O)c1ccccc1` ?
Key: 0

---

Give measured Potency for each item. Keep answers brief.
target: Cytochrome P450 2C9 (Homo sapiens); experiment: qHTS Assay for Inhibitors and Substrates of Cytochrome P450 2C9 (AID 883); conditions: recombinant CYP2C9, luciferin-H luminescence, 60 min; series mostly up to 57.1 µM; note: potency is the fitted concentration of half-maximal effect; nearly all actives have a fitted effect of over 60% in size
Results filed as inconclusive are left out. Activity calls are given as the source filed them. Calls follow the shape of the dose curve; as a rule, active = well fitted inhibition curve with a large enough effect; inconclusive = small, poorly fitted or top-dose-only effect; inactive = no such curve, though single readings can be large or run the other way.

Illustrative cases are given below, each with its answer.
O=C(O)C1=CCCN(CCOC(c2ccc(C(F)(F)F)cc2)c2ccc(C(F)(F)F)cc2)C1 | 2.51 µM (active)
CCCCC/C=C\C/C=C\C/C=C\C/C=C\CCCC(=O)Nc1ccc(O)cc1 | 5.01 µM (active)

Continue with the next compound.
Exercise: Please look up its Potency: `c1cncc([C@H]2CCCCN2)c1`
Key: 7.94 µM (active)

---

test: qHTS Assay for Lipid Storage Modulators (AID 1519); settings: Drosophila S3 cells, BODIPY lipid droplet/cell ratio, laser cytometry; measured here: cell count channel max response; cells loaded with oleic acid
Records with an inconclusive call do not appear.
# Condition met = max response below 10% (exclusive); Condition not met = max response at/above 10%

CC(CCC(=O)O)C1CCC2C3C(=O)CC4CC(=O)CC[C@@]4(C)C3CC(=O)[C@]12C (stereo partly drawn) | Condition not met
COc1c(CC=C(C)C)c2c(c3oc(=O)c(-c4ccc(O)cc4)c(O)c13)C=CC(C)(C)O2 | Condition not met
N#Cc1ccc(CN2CC[C@@]3(CCCNC3)C2)cc1 | Condition not met
C[C@@]12CCC(=O)C[C@@H]1CC[C@@H]1[C@@H]2CC[C@]2(C)C(=O)CC[C@@H]12 | Condition met
COc1cc2c(cc1OC)[C@@H]1C(=O)c3ccc(O)c(CC=C(C)C)c3OC1CO2 (stereo partly drawn) | Condition not met

Exercise: Input CCC(C)C(=O)O[C@@H]1C[C@@]2(C)C(c3ccoc3)OC(=O)CC23OC2(C)O[C@@]14[C@@]1(C)C(CC(=O)OC)C5(C)CC1(O)C(O)(C5OC(=O)C1(C)OC1C)C(OC(C)=O)[C@@]34O2 (stereo partly drawn) ; condition: max response strictly below 10%. Does it hold?
Key: Condition met

Exercise: Hi there! Is max response for `CO[C@@H](C)[C@](O)(C(=O)OCC1=CCN2CC[C@@H](O)[C@H]12)C(C)C` below 10%, do you know?
Key: Condition met

Exercise: I'd appreciate it if you could check whether `CNCC[C@@H](Oc1ccc(C(F)(F)F)cc1)c1ccccc1` has max response smaller than 10%.
Key: Condition met

Hey, just so you know, these numbers are from PubChem BioAssay (NCATS).
